Catalogue of PBM binding z-score readings, one per entry.
Test system: RARb:RXRa (NR concentration 270 nM, RXRa partner concentration 90 nM)
Experiment: PBM binding z-score (relative to random genomic background probes); higher = stronger binding; sequences stand for … in GC…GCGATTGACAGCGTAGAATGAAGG
EXPERIMENTAL READOUT: PBM binding z-score

| SEQUENCE STRING | RECORDED RESULT |
| --- | --- |
| TATAGCAGGCCAGAGGGTCACTCAAGAGGTACGG | 2.09 |
| TCTTGTAGATCAGAAGGTTAAGAAAGCTGGCCAA | 1.07 |
| AGTCAAAGTTCAGGACGAGGTAACGTAAAGCACG | 4.26 |
| ACTCGGAGGACAAAGGACAGAGCTACGCCAGTGA | 1.62 |
| AGAACGAGGGCAAGCTGAGTTGATAGCAGAGTAG | 2.46 |
| ATCTCTAGGTAAGAAGTTCAGTGAAAGAGAGGAC | 1.49 |
| CCTATTAGTTAACCATAAGGGCAACCGAAGCTCG | 1.41 |
| CGTCCAAGGTCATAGGAGGTCAGCGAAGACAGAT | 5.66 |
| CGTCCAAGGCCAAAGGTCAGTGAAGAGATGACGG | 4.58 |
| CCGCCTGGGGCAAGGTTACCATAACGCACAGCCA | 1.61 |
| CCTAGTAGGTCAGGAGGTCACACACCGGATATGA | 4.72 |
| CCAGACAGGTGAGAAGGTAACTGAGCCTCGATTA | 0.396 |
| CCTACTGGGCCATAAGGTCATTGATATCAACGTT | 3.43 |
| GGAACGAGGGCAAAGTTGATCGCATCTGTCGACG | 2.32 |
| CCTACTGGGCCAGGAAAGGTCATTGATTCAGTGA | 3.71 |
| TCTGCTAGGTCAGTTGGTCAGGTAACGAGCTGCC | 3.3 |
| GCCTGTAGATCAAGGTTAAGAAAGACTAAGCTAA | 0.799 |
| TCATAGAGGTAAAAGGTGAAAGTCGGTGTGGTAA | 2.07 |
| GCGACTGGGGCAAAGCAGGTTATCATAAGGTTGG | 0.894 |
| TCAAATAGGTAAATGCTAGGTGAAAGTCCGATCT | 0.7 |
| CGAACGAGGGCATGAGTTGACAGCAAATGCCGAT | 2.21 |
| GCTTACGGGTCTAAGGTTATAGCATGAATAGAAT | 1.02 |
| CCTACTGGGCCACGACAGGTCATTGATTCAGTGA | 2.01 |
| CCAGACAGGTGAAAGTTAACTCAGTCTGGTACGC | 1.04 |
| TTACCAAGGGGAGCTGAGGTCGTTGATCCAACTC | 0.604 |
| TCATATAGGTAAAGGGTGAAAGTCGGTGTGGTAA | 1.46 |
| ATCGAAAGGTCGAGGTGAGTTTAGAGAAAGGGAA | 4.26 |
| CGTCCAAGGTCAAGGTCCGTGAAAGAGACTCGAA | 5.29 |
| AGAACGAGCGCACGCTGAGTTGATAGCAGAGTAG | -1.05 |
| CGAACTCGGTCAAGGACAGTGAATCTCCGCACGC | 2.62 |
| TCTTGTAGATAAGCAGGTTAAGAAAGCTGGCCAA | 0.0488 |
| CGAACTACGTCAGAACAGGACAGTGAAGGATGAT | -0.283 |
| CCGACTGGGGCAGAAAGGTTGCCATACCATCCGG | 0.6 |
| TCTTGTAGATCAATAGAGGTTAAGTAAGTGCGCT | 0.993 |
| CCGTACGGGTCACGAGGTTATAGCACGACGAGCG | 4.48 |
| GCGACTTGGGCATCAGCAGGTTACCATAACTTAA | 0.00104 |
| TCATATAGGTAAACAGGTTAAAGTCCGTAAGTTA | 0.998 |
| CGTCCAAGGTCCTAGGAGGTCAGTGAAGACAGAT | 2.42 |
| GCTGCTGGGTCAGGTTGGTCAGCTAACGGGTACG | 2.84 |
| ATCTCTAGGAAACAAGTTCAGTGAAAGAGAGGAC | 1.17 |
| TTTCGGAGGACACGAAAGGTCAGAGCTCGACATC | 4.32 |
| CTCGTAAGGTCGTGCTCAGGTGAGTATACCAAAC | 2.83 |
| CCCATTAGTTGACCATAAGGGCAACCGAAGCTCG | 1.7 |
| AGAACGAGGGCACGCTGAGTTGGTAGCAGAGTAG | 2.46 |
| TCATATAGATAAAAGGTGAAAGTCGGTGTGGTAA | 1.73 |
| GATAGAGGGTCAGCTAGAGGCCAGAGTATGGAAA | 3.85 |
| AGAATGAGGTTATACGTAGATCAGGGGAGAAAGT | 1.45 |
| ATCTCTAGGTAAAAATTCAGTGAATCCCGAGGAT | 0.165 |
| CCGACTGGGGCAGAAGGTTACCATAAGCCAGCCC | 1.25 |
| TCTAGTTGGTCACGGAGGTCATACACGACGGGTA | 3.59 |
| CCTACTGGGCTAAAGGTCATTGATTCCAATGCTC | 4.26 |
